// values below are reported gcPBM binding intensity (ln)
Test system: PF3D7_0420300 AP2 domain 1 (GST-tagged)
Experiment: gcPBM binding intensity (ln(normalized median fluorescence intensity)); higher = stronger DNA binding
In all, about 25,000 sequences were measured (“ln(normalized median fluorescence intensity)”: median about 9.3, highest 2% from about 10 on). For the sample, the highest values were picked, then their nearest neighbours and some sequences at random.

{"columns": ["item.sequence", "assay.target", "gcPBM binding intensity (ln)"],
 "data": [
  ["CACAAATATACAAATACACACAAATATACACATATA [CACACA_site7176]", "PF3D7_0420300 AP2 domain 1 (GST-tagged)", 9.77],
  ["TTTCTATTTCCTTCACATCTTTTCATCTTTTTTTTT [CACACA_negctrl_site1110]", "PF3D7_0420300 AP2 domain 1 (GST-tagged)", 9.71],
  ["ATATAAATAAACAGGTGTACTATAATGTTCATAGTA [XGTACX_site1553]", "PF3D7_0420300 AP2 domain 1 (GST-tagged)", 9.47],
  ["AAAAAACAAAAACACACACACACATATATATATATA [CACACA_site3654]", "PF3D7_0420300 AP2 domain 1 (GST-tagged)", 10.2],
  ["AATATATAAGCTGTTCTATTCAAGAATTATATCTTA [CACACA_negctrl_site270]", "PF3D7_0420300 AP2 domain 1 (GST-tagged)", 9.06],
  ["TAAAGGCAAACAAACACACACACATATATACATATA [CACACA_site2123]", "PF3D7_0420300 AP2 domain 1 (GST-tagged)", 10.2],
  ["AAAAAAAAAAAACACACACACACATACAAAATATAT [CACACA_site1448]", "PF3D7_0420300 AP2 domain 1 (GST-tagged)", 10.3],
  ["TTTTAACATAGAAGTACACACATATAATCAATCATA [CACACA_site5313]", "PF3D7_0420300 AP2 domain 1 (GST-tagged)", 9.6],
  ["AAAAAAAAAAAAAACATACACACAAATATATACATA [CACACA_site4010]", "PF3D7_0420300 AP2 domain 1 (GST-tagged)", 9.67],
  ["AAACAAATAGACACTTGTACGTAAGTAAATAATTAA [XGTACX_site6157]", "PF3D7_0420300 AP2 domain 1 (GST-tagged)", 9.43],
  ["TACACAAAAATAAACACACACACATATATATATATA [CACACA_site1000]", "PF3D7_0420300 AP2 domain 1 (GST-tagged)", 9.78],
  ["CGCACTAAAAAACACACACACACACCCATATATATA [CACACA_site4152]", "PF3D7_0420300 AP2 domain 1 (GST-tagged)", 10.3],
  ["GCCTATATGTTTAGTTGTACTCCTAATATTATTTGT [XGTACX_site6060]", "PF3D7_0420300 AP2 domain 1 (GST-tagged)", 9.75],
  ["TTTCTTAAAATGTTATGTACATATTTCGTTTCAAAG [XGTACX_site6102]", "PF3D7_0420300 AP2 domain 1 (GST-tagged)", 9.01],
  ["TTTTTTTTAATATTTTACATTGTCTGTTAACAAATA [CACACA_negctrl_site599]", "PF3D7_0420300 AP2 domain 1 (GST-tagged)", 9.14],
  ["CCCACTAAAAAACACACACACACACCCATATATATA [CACACA_site6140]", "PF3D7_0420300 AP2 domain 1 (GST-tagged)", 10.2],
  ["CACCCACTAATAAACACACACATATATATATATATA [CACACA_site389]", "PF3D7_0420300 AP2 domain 1 (GST-tagged)", 9.62],
  ["AAAAAAAAAAAAAAAACACACATTTAGCAATCTACA [CACACA_site3706]", "PF3D7_0420300 AP2 domain 1 (GST-tagged)", 9.32],
  ["AATATAAAAAATAATACACACACATGGCGACAAAAT [CACACA_site8765]", "PF3D7_0420300 AP2 domain 1 (GST-tagged)", 10.2]
]}
